# target.or.system: human BCL6 BTB domain (Trx-6xHis-BCL6) (Homo sapiens (Human), UniProt P41182)
# experiment.description: HTRF in vitro assay (BCL6 BTB domain / BCOR-AF633 peptide)
# Format: binding
# condition.details: further generated data (Table 1b); 1 nM Trx-6xHis-BCL6, 0.5 nM anti-6xHis-Terbium cryptate
parameter.measured: HTRF pIC50

Form: compound = CNC(=O)c1cc(Nc2ccc3c(c2)c(NC(C)c2ncccn2)cc(=O)n3C)c(C#N)c(Cl)n1 (stereo not shown) ; HTRF pIC50 = 7.31

Form: compound = CC(Nc1cc(=O)n(C)c2ccc(Nc3ccnc(Cl)c3C#N)cc12)c1cc[nH]n1 (stereo not shown) ; HTRF pIC50 = 5.84

Form: compound = Cc1nc(N2CCC(C(=O)N(C)C)CC2)nc(Nc2ccc3c(c2)c(NC(C)(C)c2ncccn2)cc(=O)n3C)c1Cl [Example 16c] ; HTRF pIC50 = 6.36

Form: compound = CC(Nc1cc(=O)n(Cc2ccccc2)c2ccc(Nc3cc(C(=O)O)nc(Cl)c3C#N)cc12)c1ncccn1 (stereo not shown) ; HTRF pIC50 = 6.81

###

# target.or.system: BCL6-NCOR2(SMRT) corepressor protein-protein interaction (Homo sapiens (Human))
# experiment.description: NanoBRET cell assay in transfected HEK293T cells
# Assay type: cell-based
# condition.details: further generated data (Table 2b); HEK293T cells, 6 hr; read-out: NanoBRET cell pIC50 (converted)
parameter.measured: IC50 (µM)

1 = CNC(=O)c1cc(Nc2ccc3c(c2)c(NC(C)C2CC2)cc(=O)n3C)c(C#N)c(Cl)n1 (centres unmarked) [Example 7b]
2 = Cc1cc(C(C)Nc2cc(=O)n(C)c3ccc(Nc4ccnc(Cl)c4C#N)cc23)no1 (centres unmarked) [Example 1m]
3 = CC(Nc1nc(=O)n(C)c2ccc(Nc3ccnc(Cl)c3C#N)cc12)c1ncccn1 (centres unmarked) [Example 10h]
Query: Rank entries according to their IC50, from the largest number down. List labels; respect the requested ordering.
Reply: 3, 2, 1
(3: 8.91 µM, 2: 5.37 µM, 1: 1.12 µM)

A = COCC(C)(C)Nc1cc(=O)n(C)c2ccc(Nc3nc(N4CCC(C(=O)N(C)C)CC4)ncc3Cl)cc12 [Example 16d]
B = C[C@@H](Nc1cc(=O)n(C)c2ccc(Nc3cc(C(=O)N4CCC4)nc(Cl)c3C#N)cc12)C1CC1 [Example 8c]
C = CC(Nc1nc(=O)n(C)c2ccc(Nc3ccnc(Cl)c3Cl)cc12)c1ncccn1 (centres unmarked) [Example 6c]
D = C[C@@H](CO)Nc1cc(=O)n(C)c2ccc(Nc3ccnc(Cl)c3C#N)cc12 [Example 3g]
Query: Descending sort on IC50 required. List labels; respect the requested ordering.
Reply: D, A, C, B
(D: 20.9 µM, A: 9.12 µM, C: 5.5 µM, B: 0.501 µM)

###

# target.or.system: human BCL6 BTB domain (Trx-6xHis-BCL6) (Homo sapiens (Human), UniProt P41182)
# experiment.description: HTRF in vitro assay (BCL6 BTB domain / BCOR-AF633 peptide)
# Assay type: binding
# condition.details: initially generated data (Table 1a); 10 nM Trx-6xHis-BCL6, 1 nM anti-6xHis-Terbium cryptate
parameter.measured: HTRF pIC50

Form: compound = C[C@@H](Nc1cc(=O)n(C)c2ccc(Nc3ccnc(Cl)c3C#N)cc12)C(=O)NC1CCCC1 [Example 3d] ; HTRF pIC50 = 6.62

Form: compound = Cc1n[nH]c(C(C)Nc2cc(=O)n(C)c3ccc(Nc4ccnc(Cl)c4C#N)cc23)n1 (centres unmarked) [Example 3c] ; HTRF pIC50 = 6.65

Form: compound = COCCNC(=O)[C@@H](C)Nc1cc(=O)n(C)c2ccc(Nc3ccnc(Cl)c3C#N)cc12 [Example 3e] ; HTRF pIC50 = 6.59

Form: compound = Cn1c(=O)cc(N[C@H]2C[C@H](O)C2)c2cc(Nc3ccnc(Cl)c3C#N)ccc21 [Example 1f] ; HTRF pIC50 = 6.37

Form: compound = CCNC(=O)C(C)(C)Nc1cc(=O)n(C)c2ccc(Nc3ccnc(Cl)c3C#N)cc12 [Example 3h] ; HTRF pIC50 = 6.40

Form: compound = CC(Nc1cc(=O)n(CC2CCOCC2)c2ccc(Nc3ccnc(Cl)c3C#N)cc12)c1ncccn1 (centres unmarked) [Example 1d] ; HTRF pIC50 = 6.58

Form: compound = Cn1c(=O)cc(NC2CC2)c2cc(Nc3cc(C(=O)O)nc(Cl)c3C#N)ccc21 [Example 2b] ; HTRF pIC50 = 6.41

Form: compound = CC(Nc1cc(=O)n(C)c2ccc(Nc3ccnc(Cl)c3Cl)cc12)c1ncccn1 (centres unmarked) [Example 6a] ; HTRF pIC50 = 6.36
